Consider the following molecules and their measured Concentration at Maximum % Inhibition readings.
Test system: SARS CoV-2 nanoluciferase reporter virus
test summary: microbe, parasite or virus in culture
Assay type: cell-based
experimental conditions: A549-ACE2, NLRV
Counter-ions that a name gives are not always drawn. Residues, ends and D or L forms follow the SMILES beside them. *: point of attachment. Cbz = O=C(OCc1ccccc1)*; CH2F = FC*

CC(C)C(=O)OC[C@H]1O[C@@H](n2ccc(NO)nc2=O)[C@H](O)[C@@H]1O [Molnupiravir] = 10 µM

Entry CCN(CC)CCCC(C)Nc1ccnc2cc(Cl)ccc12 (stereo not drawn) [Chloroquine] has what Concentration at Maximum % Inhibition?
15 µM

Entry CC(C)(C)[C@H](NC(=O)C(F)(F)F)C(=O)N1C[C@H]2[C@@H]([C@H]1C(=O)N[C@H](C#N)C[C@@H]1CCNC1=O)C2(C)C [PF-07321332] has what Concentration at Maximum % Inhibition?
0.5 µM

Entry CC(C)C[C@H](NC(=O)OCc1ccccc1)C(=O)N[C@@H](CC(C)C)C(=O)N[C@@H](Cc1ccc(O)cc1)C(=O)CF [Calpain Inhibitor IV] (Cbz-Leu-Leu-Tyr-CH2F) has what Concentration at Maximum % Inhibition?
.0028 µM

Entry Nc1c(Br)cc(Br)cc1CN[C@H]1CC[C@H](O)CC1 [AMB, hydrochloride] has what Concentration at Maximum % Inhibition?
300 µM

Entry CCC(CC)COC(=O)[C@H](C)N[P@](=O)(OC[C@H]1O[C@@](C#N)(c2ccc3c(N)ncnn23)[C@H](O)[C@@H]1O)Oc1ccccc1 [Remdesivir] has what Concentration at Maximum % Inhibition?
1.5 µM

----------
Tested on: Vero E6 cells
experimental conditions: Vero E6; Example C (Table 4)
Residues, ends and D or L forms follow the SMILES beside them. *: point of attachment. Cbz = O=C(OCc1ccccc1)*; CH2F = FC*
quantity name: Max. Viability (%)
Report only the number, with the unit % understood.

Worked examples follow.
CCC(CC)COC(=O)[C@H](C)N[P@](=O)(OC[C@H]1O[C@@](C#N)(c2ccc3c(N)ncnn23)[C@H](O)[C@@H]1O)Oc1ccccc1 = 100.73
CC(C)C[C@H](NC(=O)OCc1ccccc1)C(=O)N[C@@H](CC(C)C)C(=O)N[C@@H](Cc1ccc(O)cc1)C(=O)CF [Calpain Inhibitor IV] (Cbz-Leu-Leu-Tyr-CH2F) = 106.84
CCOC(=O)[C@H]1O[C@@H]1C(=O)N[C@@H](CC(C)C)C(=O)NCCC(C)C = 106.71

API: the following record is the query input.
Entry CCN(CC)CCCC(C)Nc1ccnc2cc(Cl)ccc12 (stereo not shown) has what Max. Viability?
99.66

----------
test summary: in vitro
experimental conditions: African green monkey, Cytotoxicity CC50, Vero E6, 72 hours; Example C (Table 4)
Counter-ions that a name gives are not always drawn.
quantity name: CC50 at 72 h

Worked examples follow.
Nc1c(Br)cc(Br)cc1CN[C@H]1CC[C@H](O)CC1 [AMB, hydrochloride] = 184 µM
CCOC(=O)[C@H]1O[C@@H]1C(=O)N[C@@H](CC(C)C)C(=O)NCCC(C)C = > 30 µM

API: the following record is the query input.
Entry CN(Cc1cc(Br)cc(Br)c1N)C1CCCCC1 [BHH, Bromhexine hydrochloride] has what CC50 at 72 h?
58.3 µM
